biological target: Fes (UniProt P07332); experiment: phosphorylation enrichment, bacterial display (enrichment ratio); higher = better substrate or ligand; peptides without Tyr show the background
Sequence (P07332 whole entry, looked up): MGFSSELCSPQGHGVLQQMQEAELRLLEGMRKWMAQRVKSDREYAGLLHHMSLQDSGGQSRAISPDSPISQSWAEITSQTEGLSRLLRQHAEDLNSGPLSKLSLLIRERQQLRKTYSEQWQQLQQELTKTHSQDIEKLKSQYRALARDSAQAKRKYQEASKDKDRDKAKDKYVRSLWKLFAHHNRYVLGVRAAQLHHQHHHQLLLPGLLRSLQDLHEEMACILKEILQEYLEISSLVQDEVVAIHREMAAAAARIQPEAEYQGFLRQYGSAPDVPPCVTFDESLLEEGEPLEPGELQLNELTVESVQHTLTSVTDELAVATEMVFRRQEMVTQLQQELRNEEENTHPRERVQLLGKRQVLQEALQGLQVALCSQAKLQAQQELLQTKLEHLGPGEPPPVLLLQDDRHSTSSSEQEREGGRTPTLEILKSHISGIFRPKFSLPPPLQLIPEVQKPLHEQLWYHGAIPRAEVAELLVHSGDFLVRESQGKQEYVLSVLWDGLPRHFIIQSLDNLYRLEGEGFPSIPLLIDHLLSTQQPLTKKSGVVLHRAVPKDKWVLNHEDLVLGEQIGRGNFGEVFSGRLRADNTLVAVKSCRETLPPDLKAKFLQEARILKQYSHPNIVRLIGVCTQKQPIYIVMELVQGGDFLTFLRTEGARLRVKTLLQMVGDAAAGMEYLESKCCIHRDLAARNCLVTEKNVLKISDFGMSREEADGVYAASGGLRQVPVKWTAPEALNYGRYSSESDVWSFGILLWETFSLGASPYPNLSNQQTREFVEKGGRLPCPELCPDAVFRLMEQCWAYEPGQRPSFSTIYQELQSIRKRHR
Kind request: treat 1 as inclusive, so phosphorylation enrichment at 1 or higher is class 1, anything lower is class 0.

Examples with answers:
- Chain sequence: "YLQEIYNSNNQ [FGG_Y140]"
  Class label: "class 1"
- Chain sequence: "RHFTGCRIELQ [INSR_Y818_Y818C]"
  Class label: "class 1"
- Chain sequence: "PLKFLYPNIDK [STAT1_Y668_YF]"
  Class label: "class 1"

Inquiry: Could you verify whether the entry KDDEKYLDVSR [MTM1_Y260_I264S] shows phosphorylation enrichment of no less than 1?
Reply text: class 1

Inquiry: Could you verify whether the entry SSSGAYGGGYG [KRT19_Y61] shows phosphorylation enrichment of no less than 1?
Reply text: class 0

* * *

target: SHP2-C SH2; assay: SH2 binding enrichment of the phosphorylated peptide, bacterial display (enrichment ratio); higher = better substrate or ligand; peptides without Tyr show the background
Kind request: treat 0.8 as inclusive, so SH2 binding enrichment at 0.8 or higher is TRUE, anything lower is FALSE.

Examples with answers:
- Chain sequence: "TNDMRYPMKSE [TGDS_Y302]"
  Test target: "SHP2-C SH2"
  Class label: "FALSE"
- Chain sequence: "WDLTDYLMKIL [ACTB_Y188_R183W]"
  Test target: "SHP2-C SH2"
  Class label: "TRUE"
- Chain sequence: "QTLTDYDTRFY [CSNK2A3_Y131_I133T]"
  Test target: "SHP2-C SH2"
  Class label: "FALSE"
- Chain sequence: "EDEGLYTVRVP [MYOM3_Y343_M344T]"
  Test target: "SHP2-C SH2"
  Class label: "FALSE"

Inquiry: Could you verify whether the entry IVLEKYKLLPE [DHFR_Y157_D153V] shows SH2 binding enrichment of no less than 0.8?
Reply text: TRUE

Inquiry: Could you verify whether the entry ILGRTHYVNHE [NEDD4_Y627_Y627H] shows SH2 binding enrichment of no less than 0.8?
Reply text: TRUE

Inquiry: Could you verify whether the entry NKEAICSGFIR [SMCHD1_Y283_Y283C_YF] shows SH2 binding enrichment of no less than 0.8?
Reply text: FALSE

* * *

biological target: EPHB2 (UniProt P29323); test: phosphorylation enrichment, bacterial display (enrichment ratio); higher = better substrate or ligand; peptides without Tyr show the background
Sequence (P29323 whole entry, looked up): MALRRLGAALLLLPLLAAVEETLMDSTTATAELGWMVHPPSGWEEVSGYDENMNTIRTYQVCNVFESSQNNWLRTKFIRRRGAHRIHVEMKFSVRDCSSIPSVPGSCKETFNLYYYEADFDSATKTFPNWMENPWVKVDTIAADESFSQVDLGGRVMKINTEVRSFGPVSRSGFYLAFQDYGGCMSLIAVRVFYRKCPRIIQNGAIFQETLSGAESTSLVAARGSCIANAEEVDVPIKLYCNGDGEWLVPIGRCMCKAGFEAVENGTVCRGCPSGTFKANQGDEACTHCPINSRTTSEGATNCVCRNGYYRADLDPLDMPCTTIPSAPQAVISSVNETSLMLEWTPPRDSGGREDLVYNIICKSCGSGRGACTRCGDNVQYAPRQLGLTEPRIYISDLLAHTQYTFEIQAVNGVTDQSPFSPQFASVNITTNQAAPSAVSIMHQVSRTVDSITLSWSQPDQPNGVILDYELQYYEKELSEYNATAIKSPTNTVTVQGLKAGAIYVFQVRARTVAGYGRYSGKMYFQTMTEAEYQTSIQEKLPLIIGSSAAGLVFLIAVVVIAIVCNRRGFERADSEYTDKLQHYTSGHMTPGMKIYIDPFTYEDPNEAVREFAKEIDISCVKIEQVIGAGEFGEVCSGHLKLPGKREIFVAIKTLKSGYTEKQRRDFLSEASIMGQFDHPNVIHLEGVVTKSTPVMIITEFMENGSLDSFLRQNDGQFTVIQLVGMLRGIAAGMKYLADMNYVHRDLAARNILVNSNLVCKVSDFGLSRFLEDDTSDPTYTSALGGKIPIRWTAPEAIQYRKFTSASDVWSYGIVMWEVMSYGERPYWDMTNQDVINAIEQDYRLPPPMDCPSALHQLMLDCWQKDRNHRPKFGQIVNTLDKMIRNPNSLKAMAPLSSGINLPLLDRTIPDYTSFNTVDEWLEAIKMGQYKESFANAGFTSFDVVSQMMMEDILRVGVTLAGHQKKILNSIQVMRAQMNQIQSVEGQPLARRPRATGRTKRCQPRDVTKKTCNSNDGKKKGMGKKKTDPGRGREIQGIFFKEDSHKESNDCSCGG
Kind request: treat 0.6 as inclusive, so phosphorylation enrichment at 0.6 or higher is label 1, anything lower is label 0.

Examples with answers:
- Chain sequence: "PKGIRYGQGAG [CSRP3_Y73_G72R]"
  Class label: "label 0"
- Chain sequence: "TDLAYYLVCKG [ASL_Y376_R379C]"
  Class label: "label 1"
- Chain sequence: "AHDGEYGAEAL [HBA1_Y25_A22D]"
  Class label: "label 1"
- Chain sequence: "IFLENYNAGTF [CFI_Y421_H418L_YF]"
  Class label: "label 0"
- Chain sequence: "IYGASYVPFAA [RBM47_Y541]"
  Class label: "label 1"

Kindly review the next sequence as well.
Inquiry: Could you verify whether the entry GADDSYYTARS [ZAP70_Y492] shows phosphorylation enrichment of no less than 0.6?
Reply text: label 0

* * *

Please respond with reported phosphorylation enrichment for every item in the list.
biological target: EPHB1 (UniProt P54762); experiment: phosphorylation enrichment, bacterial display (enrichment ratio); higher = better substrate or ligand; peptides without Tyr show the background
Sequence (P54762 whole entry, looked up): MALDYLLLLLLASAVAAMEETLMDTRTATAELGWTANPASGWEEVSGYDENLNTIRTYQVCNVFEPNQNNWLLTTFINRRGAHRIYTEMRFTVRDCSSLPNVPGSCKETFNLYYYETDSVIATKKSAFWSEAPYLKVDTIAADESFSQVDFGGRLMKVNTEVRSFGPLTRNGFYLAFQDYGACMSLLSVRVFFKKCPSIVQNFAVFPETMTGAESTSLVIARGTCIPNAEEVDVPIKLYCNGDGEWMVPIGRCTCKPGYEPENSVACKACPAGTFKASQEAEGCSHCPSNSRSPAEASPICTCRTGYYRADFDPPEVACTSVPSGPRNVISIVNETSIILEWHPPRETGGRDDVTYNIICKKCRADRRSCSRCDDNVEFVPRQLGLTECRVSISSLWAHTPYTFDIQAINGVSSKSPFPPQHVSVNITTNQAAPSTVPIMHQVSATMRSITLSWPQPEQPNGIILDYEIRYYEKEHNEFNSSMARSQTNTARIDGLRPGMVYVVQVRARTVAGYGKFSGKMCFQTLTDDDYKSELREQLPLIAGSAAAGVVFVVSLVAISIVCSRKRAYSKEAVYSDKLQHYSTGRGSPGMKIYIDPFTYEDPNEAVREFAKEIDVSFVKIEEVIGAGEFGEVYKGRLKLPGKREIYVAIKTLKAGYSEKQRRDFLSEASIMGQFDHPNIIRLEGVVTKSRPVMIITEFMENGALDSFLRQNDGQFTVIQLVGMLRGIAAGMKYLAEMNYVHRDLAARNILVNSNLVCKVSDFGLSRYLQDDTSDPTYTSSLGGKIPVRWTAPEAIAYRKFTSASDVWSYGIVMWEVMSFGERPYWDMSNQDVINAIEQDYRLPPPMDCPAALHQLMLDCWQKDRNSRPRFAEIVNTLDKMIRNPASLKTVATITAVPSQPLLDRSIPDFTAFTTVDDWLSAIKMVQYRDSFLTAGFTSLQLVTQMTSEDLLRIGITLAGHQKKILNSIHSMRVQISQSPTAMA
Numbers only.

Some solved entries appear below for comparison.
- Chain sequence: "FVGGFYGGCNE [CTSC_Y352_YF]"
  Experimental readout: "phosphorylation enrichment"
  Result value: 0.696
- Chain sequence: "KEAQVYQAFKL [SUCLG2_Y343]"
  Experimental readout: "phosphorylation enrichment"
  Result value: 1.07
- Chain sequence: "TLMNAYSSCSH [KIF11_Y231_R234C]"
  Experimental readout: "phosphorylation enrichment"
  Result value: 0.465
- Chain sequence: "PVLSLYASGRT [ACTA1_Y145_A140P]"
  Experimental readout: "phosphorylation enrichment"
  Result value: 0.637
- Chain sequence: "GRDQPYSGTGD [TYRO3_Y828_A831T]"
  Experimental readout: "phosphorylation enrichment"
  Result value: 0.385
- Chain sequence: "KASVDYIRKLQ [MITF_Y360]"
  Experimental readout: "phosphorylation enrichment"
  Result value: 0.393

Hi there! I need phosphorylation enrichment for each item below, if you can.
1. GDPTEYYSTAI [IGSF22_Y501]
2. TENAGYFFRVS
3. RNIQQCNSFVS [PRKAR1A_Y373_Y373C]
4. NKHTTYTMEHI [ACTN1_Y708_N707T]
5. ILGRFYETGSI [PAX2_Y73_YF]

Reply text:
1. 0.598
2. 0.614
3. 0.718
4. 0.394
5. 0.489

Hi there! I need phosphorylation enrichment for each item below, if you can.
1. TYGQVYKGRHV [TNIK_Y40]
2. HHTDECEYDEL [TGM1_Y134_Y134C]
3. TSIGNYFKPWF [DHCR24_Y299_N294T_YF]
4. MVSLFYGTAIF [OR10C1_Y251_L255I]
5. TAGFIYEKWEI [TEC_Y360_S359I]

Reply text:
[0.507, 0.835, 8.6, 0.619, 1.35]

Hi there! I need phosphorylation enrichment for each item below, if you can.
1. PLQKTYNYNML [SLC4A1_Y553_V557M]
2. ISKKRYAGLLF [POLD1_Y809]
3. PLQSEYSSITT [ITGB4_Y1760]
4. TRSYKYLLLSM [NF1_Y491]
5. HHIDFYKKTTN [FGFR1_Y654_YF]
6. TLQIMYGCDVG [HLA-A_Y123_I119L]
7. STSKTYVISQT [RBBP6_Y87_R91Q]

Reply text:
1. 0.76
2. 0.415
3. 3.14
4. 0.754
5. 0.503
6. 0.594
7. 0.391

Hi there! I need phosphorylation enrichment for each item below, if you can.
1. EREFKYDAHNF [OAT_Y50_G51D_YF]
2. QAQMDYRRLQP [MPL_Y591]
3. NFFDLYGGEKF [PTPN11_Y66_D61N_YF]
4. GEEIKYMLWLL [OTC_Y55_S60L]
5. NEKNIYRVPLM [BMPR2_Y247]
6. HAVYVYDICHV [TWNK_Y508]
7. GIVEDYRPTFF [ACVRL1_Y421_P424T_YF]

Reply text:
[0.624, 0.373, 0.518, 0.722, 0.377, 5.08, 0.578]

* * *

target: Grb2 SH2 (UniProt P62993); test: SH2 binding enrichment of the phosphorylated peptide, bacterial display (enrichment ratio); higher = better substrate or ligand; peptides without Tyr show the background
Sequence (P62993 whole entry, looked up): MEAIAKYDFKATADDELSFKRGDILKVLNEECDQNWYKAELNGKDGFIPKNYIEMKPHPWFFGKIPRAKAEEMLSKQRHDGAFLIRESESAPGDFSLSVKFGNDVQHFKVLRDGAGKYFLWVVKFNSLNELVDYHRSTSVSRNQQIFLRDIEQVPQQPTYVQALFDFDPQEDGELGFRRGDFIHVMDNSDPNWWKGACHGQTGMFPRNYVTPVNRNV
Experimental readout: SH2 binding enrichment

Some solved entries appear below for comparison.
- Chain sequence: "KMKGEYFRFLA [YWHAG_Y130_D129E_YF]"
  Result value: 1.63
- Chain sequence: "SSVKPYRVYCD [FGB_Y266]"
  Result value: 1.07
- Chain sequence: "GYKVRYATGSI [FGFR1_Y210_W213G]"
  Result value: 1.1
- Chain sequence: "RAHARYCADAR [ACOT4_Y52]"
  Result value: 0.92
- Chain sequence: "WDLTDYLMKIL [ACTB_Y188_R183W]"
  Result value: 1.66

Hi there! I need SH2 binding enrichment for each item below, if you can.
1. MVSLFYGTAIF [OR10C1_Y251_L255I]
2. EFRFIYMAVQH [PTPN11_Y515_Q510E_YF]
3. GFIISYREEEQ
4. KMMGRYEMFAR [UPB1_Y362_T359M_YF]
5. AVLALHNSTRD [TGFB1_Y81_Y81H]

Reply text:
1. 0.653
2. 0.912
3. 0.672
4. 1.12
5. 0.752

Hi there! I need SH2 binding enrichment for each item below, if you can.
1. RISPEYKQNEI [GJB1_Y243_L239I]
2. ERPGVHTNVVE [F11_Y608_Y608H]

Reply text:
[0.944, 0.849]

Hi there! I need SH2 binding enrichment for each item below, if you can.
1. MSNSAYVKREV [SCN1A_Y1694_F1692S]
2. NKKFHYRELPV [ERN2_Y860_H858Y_YF]
3. HNVPICEGYAL [ACTC1_Y168_Y168C]

Reply text:
[0.838, 0.877, 0.833]

Hi there! I need SH2 binding enrichment for each item below, if you can.
1. SVTCTYSLALN [TP53_Y126_P128L]
2. ALADKYHGGGG [HBB_Y146_H144D]
3. VMAALYGRLYE [BTD_Y536_T532M]
4. TLSGIYQFSIA [FOXL2_Y81_I84S_YF]
5. LRLSSYSTTIR [CYP7B1_Y365]

Reply text:
1. 0.956
2. 0.727
3. 1.3
4. 1
5. 1.1

Numbers sourced from the supplement of paper PMC10065799.
